# Proxy for plastic degradation annotations
Substrate: PET
Experiment: Proxy for plastic degradation [Released monomer concentration (HPLC/LC-MS) (MHET)]
Protocol conditions: pH 9
Write the value in nM as a bare number.

The reported Proxy for plastic degradation of the protein unnamed (protein) NPYARGPNPTAASLEASAGPFTVRSFTVSRPSGYGAGTVYYPTNAGGTVGAIAIVPGYTARQSSIKWWGPRLASHGFVVITIDTNSTLDQPSSRSSQQMAALRQVASLNGTSSSPIYGKVDTARMGVMGWSMGGGGSLISAANNPSLKAAAPQAPWDSSTNFSSVTVPTLIFACENDSIAPVNSSALPIYDSMSRNAKQFLEINGGSHSAANSGNSNQALIGKKGVAWMKRFMDNDTRYSTFACENPNSTRVSDFRTANCS was 0

The reported Proxy for plastic degradation of the protein unnamed (protein) NPYARGPNPTAASLEASAGPFTVRSFTVSRPSGYGAGTVYYPTNAGGTVGAIAIVPGYTARQSSIKWWGPRLASHGFVVITIDTNSTLDQPSSASSQQMAALRQVASLNGTSSSPIYGKVDTARMGVMGWSMGGGGSLISAANNPSLKAAAPQAPWDSSTNFSSVTVPTLIFACENDSIAPVNSSALPIYDSMSRNAKQFLEINGGSHSCANSGNSNQALIGKKGVAWMKRFMDNDTRYSTFACENPNSTRVSDFRTANCS was 1
